# Test system: P388
# run description: Cytotoxicity against P-388 leukemia cells
# Type: functional, cell-based
# condition parameters: Mus musculus
Measured IC50 of individual entries
measured endpoint: IC50 (µg/mL)

>  <molecule>
COc1cccc(C2C3=C(O)OCC3=Nc3cc4c(cc32)OCO4)c1 (stereo not given)

>  <unit string>
µg/mL

>  <reported>
0.0053

$$$$
>  <molecule>
COc1cc(C2C3=C(O)OCC3=Nc3cc4c(cc32)CCC4)cc(OC)c1OC (stereo not given)

>  <unit string>
µg/mL

>  <reported>
0.0041

$$$$
>  <molecule>
COc1cc(C2C3=C(O)CCC3=Nc3cc4c(cc32)OCO4)cc(OC)c1OC (stereo not given)

>  <unit string>
µg/mL

>  <reported>
0.028

$$$$
>  <molecule>
COc1cc(C2C3=C(COC3=O)Nc3cc(OC)c(OC)c(OC)c32)cc(OC)c1OC (stereo not given)

>  <unit string>
µg/mL

>  <reported>
2.6

$$$$
>  <molecule>
COc1cc2c(cc1OC)C(c1ccc3c(c1)OCO3)C1=C(O)OCC1=N2 (stereo not given)

>  <unit string>
µg/mL

>  <reported>
0.77

$$$$
